Hey, just so you know, these numbers are from the supplement of paper PMC8728848.

target: GlcNAc(b1-6)GalNAc; experiment: glycan array binding signal (z-score within array); higher = stronger binding; details: glycan notation: IUPAC condensed, linker removed
Shown is part of a subset that was picked to be rich in the strongest signals.
reported_metric: glycan array binding signal (z-score)

[
  {
    "binder": "AFL6 (Aspergillus fumigatus), Q4WKJ1 (protein) MSFHLTAEDIRIEDGHRLVARLRNADGDLQDASIDLNTCLGNDNGHFQWDGVDFSHSAQDVHFAIEGGGQVPVLRAQLANQDGEFQDADVNLSERIENINGEFVFH",
    "value_reported": -0.476
  },
  {
    "binder": "SSR1 (Sclerotium rolfsii), A0A0M3KL30 (protein) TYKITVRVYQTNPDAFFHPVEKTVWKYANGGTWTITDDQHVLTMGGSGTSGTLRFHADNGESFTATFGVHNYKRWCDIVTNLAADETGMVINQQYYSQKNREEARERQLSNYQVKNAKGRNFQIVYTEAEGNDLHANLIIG",
    "value_reported": 1.03
  },
  {
    "binder": "FimD (Bordetella pertussis) (protein) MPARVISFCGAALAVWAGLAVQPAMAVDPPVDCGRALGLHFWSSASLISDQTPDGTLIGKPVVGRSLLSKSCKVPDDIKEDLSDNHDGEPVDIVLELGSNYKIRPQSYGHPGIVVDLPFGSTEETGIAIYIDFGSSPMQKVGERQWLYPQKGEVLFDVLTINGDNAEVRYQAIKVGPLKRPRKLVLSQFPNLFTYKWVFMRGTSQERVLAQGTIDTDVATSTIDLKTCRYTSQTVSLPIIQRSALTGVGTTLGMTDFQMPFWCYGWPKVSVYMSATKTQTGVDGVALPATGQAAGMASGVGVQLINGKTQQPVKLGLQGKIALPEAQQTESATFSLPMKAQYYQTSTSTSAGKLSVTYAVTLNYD",
    "value_reported": -0.117
  },
  {
    "binder": "FliC (Clostridium difficile) (protein) MRVNTNVSALIANNQMGRNVNGQSKSMEKLSSGVRIKRAADDAAGLAISEKMRAQIKGLDQAGRNVQDGISVVQTAEGSLEETGNILQRMRTLSLQSANEINNTEEREKIADELTQLKDEIERISSSTEFNGKKLLDGTSSTIRLQVGASYGTNVSGTSNNNNEIKIQLVNTASIMASAGITTASIGSMKAGGTTGTDAAKTMVSSLDAALKSLNSSRAKLGAQQNRLESTQNNLNNTLENVTAAESRIRDTDVASEMVNLSKMNILVQASQSMLAQANQQPQGVLQLLG",
    "value_reported": -0.08
  },
  {
    "binder": "cupB6 (Pseudomonas aeruginosa), Q02SP7 (protein) MSMRLFPGRVSLRRRPGAQARQALVLGLCCLTGGQAWALNEVALNCSFGNGKGLPWRVVNELTSGTAKGTVLFARPVSLFLSYKPQASQEAHELVLGGNWSGVGYPGPYGTVASDVKGIGYRISVDAQDGVKRVIPVDNQPHALDKRVTSFSGSTTSDYLQELVLTVDPGELPAGDLKVTSVSGSATLNLWAVDRLKGEASIGSVLAVPADNYPTGVCRKPYSLIGPASIAIGGGPPPPPIPKKCKVEVGREINVKLGSVALKNFPRVNDTSTERSFDISLSECAALAKPEIAFRDKYVSAQQADPTILSLKSGGAAGFGIVVKNGLDQQRIRFDGTPYPMRRVGDSADLPLSAAYIRIGAEGELKAGVADGAAEFTFTFP",
    "value_reported": -0.194
  }
]
